Experiment: 5 day repeat oral dosing PK of AMXT 1501 dicaprate
Format: in vivo, beagle dogs
Conditions: both sexes, beagle, dog, plasma, po, 32 mg/kg, 32 mg/kg PO, Day 1, individual animals; read-out: Cmax
readout_label: Cmax
Write the numeric value and follow it with the unit.

Could you tell me which Cmax is on file for CCCCCCCCCCCCCCCC(=O)NCCCC[C@@H](N)C(=O)NCCCNCCCCNCCCN [AMXT 1501 dicaprate] ? 563 ng/mL

* * *

Assay: 5 day repeat oral dosing PK of AMXT 1501 dicaprate
Type: in vivo, beagle dogs
Conditions: both sexes, beagle, dog, plasma, po, 16 mg/kg, 16 mg/kg PO once daily, Day 5, individual animals; read-out: AUC0-t
readout_label: AUC(0-t) (ng·h/mL)
I only need the number, in ng·h/mL, no unit after it.

Could you tell me which AUC(0-t) is on file for CCCCCCCCCCCCCCCC(=O)NCCCC[C@@H](N)C(=O)NCCCNCCCCNCCCN [AMXT 1501 dicaprate] ? 9410

* * *

Test: 28-day repeat-dose toxicity study, toxicokinetics of AMXT 1501 dicaprate
Type: in vivo, beagle dogs
Conditions: both sexes, beagle, dog, plasma, po, 16 mg/kg/day, 16 mg/kg/day PO, DFMO 0, Day 1, M+F combined; read-out: AUC0-24 hr Median
Description: AMXT 1501 PK parameters were calculated for all AMXT 1501 dicaprate-dosed animals for the first dose (Day 1) and last dose (Day 28).
readout_label: AUC(0-t) (ng·h/mL)
I only need the number, in ng·h/mL, no unit after it.

Could you tell me which AUC(0-t) is on file for CCCCCCCCCCCCCCCC(=O)NCCCC[C@@H](N)C(=O)NCCCNCCCCNCCCN [AMXT 1501 dicaprate] ? 1750
